This collection of values is drawn from ChEMBL document CHEMBL1944627.

# Test system: Rattus norvegicus
# assay.name: Biodistribution in Sprague-Dawley rat olfactory bulbs at 1 to 3 MBq, iv after 30 mins by gamma counting
# Type: ADME, organism-based, Olfactory bulb
# stated.conditions: in vivo, 0.5 h
recorded.metric: Drug uptake (% ID/g)

Look over these answered cases.
query: Report Drug uptake for CCN(CC)C(=O)C1CCCc2c1c1cc(F)c(OC)cc1n2CC[18F] (centres undefined) please.
result: 0.25

query: Report Drug uptake for O=C(C1CCCc2c1c1ccccc1n2CC[18F])N1CCCCC1 (centres undefined) please.
result: 0.25

I = CCCN(C)C(=O)C1CCCc2c1c1ccccc1n2CC[18F] (centres undefined)
II = CCCN(CC)C(=O)C1CCCc2c1c1ccccc1n2CC[18F] (centres undefined)
query: # returns the entry with the larger Drug uptake; inputs I and II Bench note: the answer is the label of the chosen record.
result: II
